- Experimental details: Caco-2 membrane permeability, improved method as used in the following Examples (96-well, 20 to 24 h preincubation)
- Type: in vitro ADME
- Settings: human, Caco-2, Caco-2
Starred links: 1 amine or outer side, 2 acyl side, 3 side chain; linkers in the order of their positions; H or OH if unused. Positions of bridges follow the written chain, without caps; N, C: chain ends. Non-standard residues stand in square brackets, D forms with d. Residues, ends and D or L forms follow the SMILES beside them. *: point of attachment. NMeAbu(3,3-F2-piperidino) = CN[C@@H](CCN1CCCC(F)(F)C1)C(=O)O; X8 = O=C(CN(CCN1CCC(F)(F)CC1)[*:1])[*:2]; Gly(NCH2CH2Ph) = O=C(O)CNCCc1ccccc1; Hyp = O=C(O)[C@@H]1C[C@@H](O)CN1; NMeF = CN[C@@H](Cc1ccccc1)C(=O)O; NMeI = CC[C@H](C)[C@H](NC)C(=O)O; NMeL = CN[C@@H](CC(C)C)C(=O)O; NMeAbu = CC[C@H](NC)C(=O)O; Pip = O=C(O)[C@@H]1CCCCN1; NMeA = CN[C@@H](C)C(=O)O; Piperidide = C1CCN(*)CC1; Isopentyl = CC(C)CC*; Sar = CNCC(=O)O; tBu = CC(C)(C)*
Attribute measured: Papp A→B at 180 min (×10⁻⁶ cm/s)
Answers are plain numbers, in ×10⁻⁶ cm/s.

// worked examples, Papp A→B at 180 min included
{"columns": ["Compound", "Attribute measured", "Quantitative readout"],
 "data": [
  ["CC[C@H](C)[C@@H]1NC(=O)[C@H](CC(C)C)N(C)C(=O)[C@@H](CC(C)C)NC(=O)C[C@@H](C(=O)N2CCCCC2)NC(=O)[C@H](CC(C)C)N(C)C(=O)[C@H](Cc2ccccc2)N(C)C(=O)[C@H](COC(C)(C)C)NC(=O)CN(CCc2ccccc2)C(=O)CN(C)C(=O)[C@H]([C@@H](C)O)NC(=O)[C@H](CC)N(C)C1=O [pd413] ([dL][NMeL]I[NMeAbu]T[Sar][Gly(NCH2CH2Ph)]S(tBu)[NMeF][NMeL]D-Piperidide; lactam N-11)", "Papp A→B at 180 min", 1.5],
  ["CC(C)C[C@@H]1NC(=O)[C@H](Cc2ccccc2)N(C)C(=O)[C@H](CC(C)C)N(C)C(=O)[C@H](CC(C)C)NC(=O)[C@H](C)N(C)C(=O)C[C@@H](C(=O)N2CCCCC2)NC(=O)[C@H](CC(C)C)N(C)C(=O)CN(C)C(=O)[C@H]([C@@H](C)O)NC(=O)CN(CCN2CCC(F)(F)CC2)C(=O)[C@H](Cc2ccccc2)N(C)C1=O [pd456] ([NMeA]L[NMeL][NMeF]L[NMeF][X8]T[Sar][NMeL]D-Piperidide; lactam N-11)", "Papp A→B at 180 min", 5],
  ["CCO[C@@H]1C[C@H]2C(=O)N3CCCC[C@H]3C(=O)N[C@@H](COC(C)(C)C)C(=O)N(C)[C@@H](CC(C)C)C(=O)N[C@@H]([C@@H](C)O)C(=O)N(C)[C@@H](CC(C)C)C(=O)N(C)[C@@H](CC(C)C)C(=O)N(C)[C@@H](CC(C)C)C(=O)N[C@H](C(=O)N3CCCCC3)CC(=O)N[C@H](C(C)C)C(=O)N(C)[C@@H]([C@@H](C)CC)C(=O)N2C1 [pd383] ([dV][NMeI][Hyp](Et)[Pip]S(tBu)[NMeL]T[NMeL][NMeL][NMeL]D-Piperidide; lactam N-11)", "Papp A→B at 180 min", 2.8]
]}

Proceeding to the next compound to report its Papp A→B at 180 min.
[in] Please list Papp A→B at 180 min recorded for the compound CC(C)CCOC[C@@H]1NC(=O)[C@H](CCN2CCCC(F)(F)C2)N(C)C(=O)[C@H](Cc2ccccc2)N(C)C(=O)CN(C)C(=O)[C@H]([C@@H](C)O)NC(=O)[C@H](CC(C)C)N(C)C(=O)[C@H](CC(C)C)NC(=O)[C@H](Cc2ccccc2)N(C)C(=O)CN(C)C(=O)C[C@@H](C(=O)N2CCCCC2)NC(=O)[C@H](CC(C)C)N(C)C1=O [pd393] ([Sar][NMeF]L[NMeL]T[Sar][NMeF][NMeAbu(3,3-F2-piperidino)]S(Isopentyl)[NMeL]D-Piperidide; lactam N-11)
[out] 2.5
